Where these numbers come from: patent US11325900B2

ASSAYED TARGET: CDK8/CycC (Homo sapiens)
PROTOCOL SUMMARY: Radiometric protein kinase assay (33PanQinase Activity Assay, ProQinase)
SETUP CONDITIONS: 1.0 μM ATP, 1.0 μg/50 μL substrate RBER-IRStide, duplicate measurements, read-out: CDK8 Kinase inhibition IC50
pIC50: −log10 of the molar value.
PARAMETER: pIC50

The compound identified as CNc1nccc(-c2sc(NC(=O)Nc3ccc(F)c(C(F)(F)F)c3)nc2C)n1 registered its pIC50 at 7.89

// pIC50 value for CNc1ncc(Cl)c(-c2sc(NC(=O)Nc3ccc(CN4CCN(C(C)C)CC4)c(C(F)(F)F)c3)nc2C)n1 : 7.52

Sure, the documented pIC50 for CNc1ncc(Cl)c(-c2sc(NC(=O)Nc3ccc(CN4CCN(C)CC4)c(C(F)(F)F)c3)nc2C)n1 is 7.82

Summary for this compound, CNc1nccc(-c2sc(NC(=O)Nc3cccc(C(F)(F)F)c3)nc2C)n1 : pIC50 is 8.00

CNc1nccc(-c2sc(NC(=O)Nc3cccc(Cl)c3)nc2C)n1 has a reported pIC50 of 7.48

P. CNc1nccc(-c2sc(NC(=O)Nc3ccc(CN4CCC(C)CC4)c(C(F)(F)F)c3)nc2C)n1
Q. Cc1nc(NC(=O)Nc2ccc(CN3CCOCC3)c(C(F)(F)F)c2)sc1-c1ccnc(N)n1
I would appreciate it if you could say which entry, P or Q , has the lower pIC50 value. Reply with the label of the item you choose.
P

----------
ASSAYED TARGET: CDK8/CycC (Homo sapiens, UniProt P49336)
Sequence (P49336 whole entry): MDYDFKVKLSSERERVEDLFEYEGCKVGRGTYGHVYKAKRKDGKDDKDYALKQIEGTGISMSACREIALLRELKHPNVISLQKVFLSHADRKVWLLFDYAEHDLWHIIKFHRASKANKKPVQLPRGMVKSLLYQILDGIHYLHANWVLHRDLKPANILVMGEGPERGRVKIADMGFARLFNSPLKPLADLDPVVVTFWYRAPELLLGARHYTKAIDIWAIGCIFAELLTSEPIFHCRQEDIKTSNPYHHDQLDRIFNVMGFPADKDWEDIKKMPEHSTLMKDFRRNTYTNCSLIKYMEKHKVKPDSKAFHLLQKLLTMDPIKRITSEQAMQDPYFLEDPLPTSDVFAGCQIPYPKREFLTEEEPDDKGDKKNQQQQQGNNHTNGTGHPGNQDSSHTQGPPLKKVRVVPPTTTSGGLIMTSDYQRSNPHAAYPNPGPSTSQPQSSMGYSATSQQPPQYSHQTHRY
Sequence (P24863 whole entry partner): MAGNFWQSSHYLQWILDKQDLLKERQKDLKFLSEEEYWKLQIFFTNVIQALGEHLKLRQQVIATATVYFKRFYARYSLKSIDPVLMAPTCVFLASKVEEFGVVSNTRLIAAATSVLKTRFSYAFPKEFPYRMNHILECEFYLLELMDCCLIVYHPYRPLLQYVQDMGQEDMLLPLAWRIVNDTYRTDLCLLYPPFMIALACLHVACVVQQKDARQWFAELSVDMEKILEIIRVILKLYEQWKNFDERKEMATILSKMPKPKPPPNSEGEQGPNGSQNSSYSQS
PROTOCOL SUMMARY: Radiometric protein kinase assay (33PanQinase Activity Assay, ProQinase)
SETUP CONDITIONS: 1.0 μM ATP, 1.0 μg/50 μL substrate RBER-IRStide, duplicate measurements, read-out: CDK8 Kinase inhibition IC50
pIC50: −log10 of the molar value.
PARAMETER: pIC50

P. CCOc1cccc(NC(=O)Nc2nc(C)c(-c3ccnc(NC)n3)s2)c1 [Compound 19]
Q. CNc1nccc(-c2sc(NC(=O)Nc3ccc(C(F)(F)F)cc3)nc2C)n1 [Compound 41]
Hi! Which is lower in terms of pIC50, the first one P or the second one Q ? Please reply using the label of the selected record.
Q

A. CNc1nccc(-c2sc(NC(=O)Nc3cccc(SC)c3)nc2C)n1 [Compound 21]
B. CNc1nccc(-c2sc(NC(=O)Nc3ccc(C(F)(F)F)cc3C(F)(F)F)nc2C)n1 [Compound 8]
For the pair A and B , which member has the lower pIC50 number? Write down the label attached to your selection.
B

1. CNc1nccc(-c2sc(NC(=O)Nc3ccc(CN4CCOCC4)c(C(F)(F)F)c3)nc2C)n1 [Compound 37]
2. CNc1nccc(-c2sc(NC(=O)Nc3ccc(CN4CCOCC4)c(Cl)c3)nc2C)n1 [Compound 31]
3. CNc1nccc(-c2sc(NC(=O)Nc3ccc(C(F)(F)F)c(C(F)(F)F)c3)nc2C)n1 [Compound 27]
Rank by pIC50 (largest to smallest). Please list the labels in the order you were asked to rank them.
1, 2, 3
(1: 8.05, 2: 7.66, 3: 7.28)

----------
ASSAYED TARGET: CDK8/CycC (Homo sapiens)
PROTOCOL SUMMARY: Radiometric protein kinase assay (33PanQinase Activity Assay, ProQinase)
SETUP CONDITIONS: 1.0 μM ATP, 1.0 μg/50 μL substrate RBER-IRStide, duplicate measurements, read-out: CDK8 Kinase inhibition IC50
PARAMETER: IC50 (µM)

Guide cases for IC50, answers given:
response.value for CNc1nccc(-c2sc(NC(=O)Nc3cccc(OC)c3)nc2C)n1 (field: IC50) = 0.009

Lab note: CNc1ncc(Cl)c(-c2sc(NC(=O)Nc3ccc(CN4CCN(S(C)(=O)=O)CC4)c(C(F)(F)F)c3)nc2C)n1 gave IC50 of 0.132

So for CNc1nccc(-c2cnc(NC(=O)Nc3ccc(CN4CCN(C(C)C)CC4)c(C(F)(F)F)c3)s2)n1 , the logged IC50 turned out to be 0.016

IC50 in this record for CNc1nccc(-c2sc(NC(=O)Nc3ccc(CN4CCN(S(C)(=O)=O)CC4)c(C(F)(F)F)c3)nc2C)n1 : 0.032

Recorded result, CNc1nccc(-c2sc(NC(=O)Nc3cccc(C(C)C)c3)nc2C)n1 , IC50: 0.015

Reported IC50 ( Cc1nc(NC(=O)Nc2ccc(CN3CCN(C)CC3)c(C(F)(F)F)c2)sc1-c1ccnc(C(C)C)n1 ) = 0.074

So for Cc1ccc(NC(=O)Nc2nc(C)c(-c3ccnc(N(C)C)n3)s2)cc1Cl , the logged IC50 turned out to be 0.046

For CNc1nccc(-c2sc(NC(=O)Nc3cccc(S(=O)(=O)C(F)(F)F)c3)nc2C)n1 the molecule record lists IC50 as 0.026

Please fill in: IC50 reported for CNc1nccc(-c2sc(NC(=O)Nc3ccc(CN4CCN(C(C)=O)CC4)c(C(F)(F)F)c3)nc2C)n1 = 0.014

Memo: CNc1nccc(-c2sc(NC(=O)Nc3ccccc3F)nc2C)n1 , reported IC50: 0.042

A. CSc1nccc(-c2sc(NC(=O)Nc3ccc(CN4CCN(C)CC4)c(C(F)(F)F)c3)nc2C)n1
B. CNc1nccc(-c2cnc(NC(=O)Nc3ccc(CN4CCN(C(C)=O)CC4)c(C(F)(F)F)c3)s2)n1
C. CNc1nccc(-c2sc(NC(=O)Nc3ccc(F)cc3C(F)(F)F)nc2C)n1
D. Cc1nc(NC(=O)Nc2ccc(CN3CCN(S(C)(=O)=O)CC3)c(C(F)(F)F)c2)sc1-c1ccnc(C(C)C)n1
Hello, I need these entries ordered by IC50, highest reading first. Thanks! Please list the labels in the order you were asked to rank them.
C, D, A, B

I. Cc1nc(NC(=O)Nc2cccc(C(F)(F)F)c2)sc1-c1ccnc(N)n1
II. CCNc1nccc(-c2sc(NC(=O)Nc3ccc(CN4CCOCC4)c(C(F)(F)F)c3)nc2C)n1
Lab notebook, comparison: I versus II , higher IC50 goes to which? In your reply, give the label of the chosen option.
I

I. CNc1ncc(C#N)c(-c2sc(NC(=O)Nc3ccc(CN4CCOCC4)c(C(F)(F)F)c3)nc2C)n1
II. CNc1nccc(-c2sc(NC(=O)Nc3ccc(C)c(Cl)c3)nc2C)n1
Given I and given II , which shows the smaller recorded IC50? Refer to your chosen entry by its label in the reply.
II
(II: 0.013 µM, I: 0.082 µM)

P. CNc1ncc(Cl)c(-c2sc(NC(=O)Nc3ccc(CN4CCN(C(C)=O)CC4)c(C(F)(F)F)c3)nc2C)n1
Q. Cc1nc(NC(=O)Nc2cccc(C(F)(F)F)c2)sc1-c1ccnc(N(C)C)n1
Consider entries P and Q . Which has the numerically lower IC50? Respond with the label that goes with your answer.
Q
(Q: 0.041 µM, P: 0.08 µM)

----------
ASSAYED TARGET: CDK8/CycC (Homo sapiens, UniProt P49336)
PROTOCOL SUMMARY: Radiometric protein kinase assay (33PanQinase Activity Assay, ProQinase)
SETUP CONDITIONS: 1.0 μM ATP, 1.0 μg/50 μL substrate RBER-IRStide, duplicate measurements, read-out: CDK8 Kinase inhibition IC50
pIC50: −log10 of the molar value.
PARAMETER: pIC50

Solved entries:
Record CCNc1nccc(-c2sc(NC(=O)Nc3ccc(CN4CCN(C(C)=O)CC4)c(C(F)(F)F)c3)nc2C)n1 . Reported pIC50: 7.46

Lab book: pIC50 of CNc1nccc(-c2sc(NC(=O)Nc3ccc(F)cc3C)nc2C)n1 noted as 6.63

Entry CNc1nccc(-c2sc(NC(=O)Nc3ccc(C(F)(F)F)c(Cl)c3)nc2C)n1 — recorded pIC50 = 7.60

Memo: CNc1nccc(-c2sc(NC(=O)Nc3cccc(Br)c3)nc2C)n1 , reported pIC50: 8.15

I. CNc1nccc(-c2sc(NC(=O)Nc3ccc(CN4CCN(C(C)C)CC4)c(C(F)(F)F)c3)nc2C)n1
II. Cc1nc(NC(=O)Nc2cccc(Cl)c2)sc1-c1ccnc(N(C)C)n1
Would you kindly point out which of I and II has the smaller pIC50 figure? # respond with the chosen item's label
II
(II: 7.42, I: 7.96)

I. CNc1nccc(-c2sc(NC(=O)Nc3ccc(CN4CCC(N)CC4)c(C(F)(F)F)c3)nc2C)n1
II. Cc1nc(NC(=O)Nc2ccc(CN3CCN(C(C)C)CC3)c(C(F)(F)F)c2)sc1-c1ccnc(N)n1
Thinking about recorded pIC50 values, which is higher, I or II ? # answer = label of selected item
I

I. CCN1CCN(Cc2ccc(NC(=O)Nc3nc(C)c(-c4ccnc(NC)n4)s3)cc2C(F)(F)F)CC1
II. CNc1nccc(-c2sc(NC(=O)Nc3ccc(C(F)(F)F)c(F)c3)nc2C)n1
III. CSc1nccc(-c2sc(NC(=O)Nc3ccc(CN4CCN(C(C)=O)CC4)c(C(F)(F)F)c3)nc2C)n1
hey, can you rank those molecules up there by pIC50? biggest number first please Please list each label once, in the requested order.
I, II, III
(I: 8.00, II: 7.59, III: 6.75)
